Test system: RAW264.7
Assay: Antiinflammatory activity against LPS-induced mouse RAW264.7 cells assessed as reduction in nitrite level at 30 uM preincubated with compound for 1 hr followed by LPS-induction and measured after 24 hrs by Fluorometric Assay relative to control
Type: functional
Design: scale not given: the % may be the effect or the level left
Conditions: time 25 hrs
The threshold is 90%. Values of Activity beneath it are tagged Yes; values meeting or exceeding it are tagged No.

compound: CCN1CCC[C@H](N2C(=O)c3cccc(N)c3C2=O)C1
assigned_category: No

compound: Nc1cccc2c1C(=O)N(C1CCCNC1)C2=O (racemic)
assigned_category: Yes

compound: Nc1cccc2c1C(=O)N(C1CCCN(C(=O)C(F)(F)F)C1)C2=O (stereo not drawn)
assigned_category: No

compound: Nc1cccc2c1C(=O)N([C@@H]1CCCNC1)C2=O
assigned_category: Yes

compound: CC(C)N1CCCC(N2C(=O)c3cccc(N)c3C2=O)C1 (racemic)
assigned_category: No

compound: CC(C)N1CCC[C@@H](N2C(=O)c3cccc(N)c3C2=O)C1
assigned_category: No

compound: CC(=O)N1CCCC(N2C(=O)c3cccc(N)c3C2=O)C1 (stereo not drawn)
assigned_category: Yes

====

Assay: Solubility of compound in PBS at pH 7.4 by LC/MS analysis
Format: physicochemical

molecule: Nc1cccc2c1C(=O)N(C1CCC(=O)NC1=O)C2=O (stereo unspecified) [POMALIDOMIDE]
unit_symbol: µM
solubility: 85

====

This section presents compounds with their documented viability at 10 µM values.
Tested on: RAW264.7
Assay: Antiinflammatory activity against LPS-induced mouse RAW264.7 cells assessed as cell viability at 10 uM by celltiter-blue cell viability assay
Format: functional
Conditions: read-out: Activity

compound: CC(C)N1CCC[C@@H](N2C(=O)c3cccc(N)c3C2=O)C1
viability at 10 µM: 99%
--
compound: Nc1cccc2c1C(=O)N([C@@H]1CCCNC1)C2=O
viability at 10 µM: 103%
--
compound: CCN1CCCC(N2C(=O)c3cccc(N)c3C2=O)C1 (racemic)
viability at 10 µM: 99%
--
compound: CC(=O)N1CCCC(N2C(=O)c3cccc(N)c3C2=O)C1 (stereo unspecified)
viability at 10 µM: 103%
--
compound: CC(C)N1CCC[C@H](N2C(=O)c3cccc(N)c3C2=O)C1
viability at 10 µM: 100%
--
compound: CCN1CCC[C@H](N2C(=O)c3cccc(N)c3C2=O)C1
viability at 10 µM: 96%
--
compound: CC(C)N1CCCC(N2C(=O)c3cccc(N)c3C2=O)C1 (racemic)
viability at 10 µM: 100%
--
compound: CS(=O)(=O)N1CCCC(N2C(=O)c3cccc(N)c3C2=O)C1 (stereo unspecified)
viability at 10 µM: 103%
--
compound: Nc1cccc2c1C(=O)N(C1CCCN(C(=O)C(F)(F)F)C1)C2=O (stereo unspecified)
viability at 10 µM: 103%
--
compound: CN1CCC[C@H](N2C(=O)c3cccc(N)c3C2=O)C1
viability at 10 µM: 111%
--
compound: Nc1cccc2c1C(=O)N(C1CCCN(C(=O)C3CC3)C1)C2=O (stereo unspecified)
viability at 10 µM: 102%

====

Biological target: Serotonin 3 (5-HT3) receptor
Experiment: Displacement of [3H]DTG from 5HT3 receptor (unknown origin) assessed as inhibition constant
reported_endpoint: Ki

compound: CS(=O)(=O)N1CCCC(N2C(=O)c3cccc(N)c3C2=O)C1 (stereo unspecified)
reported_endpoint: Ki
observed_value: > 10 µM

====

Target: Sigma non-opioid intracellular receptor 1 (Homo sapiens, UniProt Q99720)
Sequence (Q99720 whole entry): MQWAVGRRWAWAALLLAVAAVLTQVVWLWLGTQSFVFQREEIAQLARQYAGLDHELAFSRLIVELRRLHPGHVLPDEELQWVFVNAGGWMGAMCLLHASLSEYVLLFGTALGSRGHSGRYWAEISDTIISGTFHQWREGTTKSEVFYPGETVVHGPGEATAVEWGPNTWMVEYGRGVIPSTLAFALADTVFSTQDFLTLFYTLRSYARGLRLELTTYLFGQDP
Experiment: Displacement of [3H]DTG from sigma-1 receptor (unknown origin) assessed as inhibition constant
pKi: −log10 of the molar value.

compound: CC(=O)N1CCCC(N2C(=O)c3cccc(N)c3C2=O)C1 (stereo unspecified)
pKi: 5.62

====

# Lookup of reported Activity keyed by entry
Test system: RAW264.7
Test: Antiinflammatory activity against LPS-induced mouse RAW264.7 cells assessed as reduction in nitrite level at 30 uM preincubated with compound for 1 hr followed by LPS-induction and measured after 24 hrs by Fluorometric Assay relative to control
Assay type: functional
Parameters: scale not given: the % may be the effect or the level left
Conditions: time 25 hrs
reported_endpoint: Activity (%)

compound: CC(C)N1CCC[C@H](N2C(=O)c3cccc(N)c3C2=O)C1
unit_symbol: %
observed_value: 108
--
compound: CS(=O)(=O)N1CCCC(N2C(=O)c3cccc(N)c3C2=O)C1 (stereo unspecified)
unit_symbol: %
observed_value: 95
--
compound: CCN1CCC[C@@H](N2C(=O)c3cccc(N)c3C2=O)C1
unit_symbol: %
observed_value: 80
--
compound: Nc1cccc2c1C(=O)N([C@H]1CCCNC1)C2=O
unit_symbol: %
observed_value: 83
--
compound: CCN1CCCC(N2C(=O)c3cccc(N)c3C2=O)C1 (racemic)
unit_symbol: %
observed_value: 90
--
compound: CN1CCC[C@@H](N2C(=O)c3cccc(N)c3C2=O)C1
unit_symbol: %
observed_value: 95

====

Test system: RAW264.7
Test: Antiinflammatory activity against LPS-induced mouse RAW264.7 cells assessed as cell viability at 10 uM by celltiter-blue cell viability assay
Format: functional
Conditions: read-out: Activity
Here, each record is paired with measured viability at 10 µM data.

compound: CN1CCC[C@@H](N2C(=O)c3cccc(N)c3C2=O)C1
system: RAW264.7
viability at 10 µM (%): 100

compound: Nc1cccc2c1C(=O)N(C1CCCNC1)C2=O (racemic)
system: RAW264.7
viability at 10 µM (%): 99

compound: CN1CCCC(N2C(=O)c3cccc(N)c3C2=O)C1 (racemic)
system: RAW264.7
viability at 10 µM (%): 95

compound: CCN1CCC[C@@H](N2C(=O)c3cccc(N)c3C2=O)C1
system: RAW264.7
viability at 10 µM (%): 104

compound: Nc1cccc2c1C(=O)N([C@H]1CCCNC1)C2=O
system: RAW264.7
viability at 10 µM (%): 102

====

Tested on: RAW264.7
Assay: Antiinflammatory activity against LPS-induced mouse RAW264.7 cells assessed as reduction in TNF-alpha level at 10 uM preincubated with compound for 1 hr followed by LPS-induction and measured after 24 hrs by ELISA analysis relative to control
Format: functional
Parameters: scale not given: the % may be the effect or the level left
Details: time 25 hrs
Collected Activity values appear next to each entry.
reported_endpoint: Activity (%)

compound: Nc1cccc2c1C(=O)N([C@@H]1CCCNC1)C2=O
unit_symbol: %
observed_value: 95
//
compound: CC(C)N1CCC[C@@H](N2C(=O)c3cccc(N)c3C2=O)C1
unit_symbol: %
observed_value: 110
//
compound: Nc1cccc2c1C(=O)N(C1CCCN(C(=O)C3CC3)C1)C2=O (stereo not drawn)
unit_symbol: %
observed_value: 100
//
compound: CS(=O)(=O)N1CCCC(N2C(=O)c3cccc(N)c3C2=O)C1 (stereo not drawn)
unit_symbol: %
observed_value: 99
//
compound: CC(=O)N1CCCC(N2C(=O)c3cccc(N)c3C2=O)C1 (stereo not drawn)
unit_symbol: %
observed_value: 86
//
compound: CCN1CCC[C@H](N2C(=O)c3cccc(N)c3C2=O)C1
unit_symbol: %
observed_value: 111
//
compound: CN1CCC[C@@H](N2C(=O)c3cccc(N)c3C2=O)C1
unit_symbol: %
observed_value: 100
//
compound: Nc1cccc2c1C(=O)N([C@H]1CCCNC1)C2=O
unit_symbol: %
observed_value: 94
//
compound: CCN1CCC[C@@H](N2C(=O)c3cccc(N)c3C2=O)C1
unit_symbol: %
observed_value: 97
//
compound: CC(C)N1CCC[C@H](N2C(=O)c3cccc(N)c3C2=O)C1
unit_symbol: %
observed_value: 115
//
compound: CN1CCCC(N2C(=O)c3cccc(N)c3C2=O)C1 (racemic)
unit_symbol: %
observed_value: 116
//
compound: CC(C)N1CCCC(N2C(=O)c3cccc(N)c3C2=O)C1 (racemic)
unit_symbol: %
observed_value: 109
//
compound: CCN1CCCC(N2C(=O)c3cccc(N)c3C2=O)C1 (racemic)
unit_symbol: %
observed_value: 112

====

Molecular target: Sigma intracellular receptor 2 (Homo sapiens, UniProt Q5BJF2)
Sequence (Q5BJF2 whole entry): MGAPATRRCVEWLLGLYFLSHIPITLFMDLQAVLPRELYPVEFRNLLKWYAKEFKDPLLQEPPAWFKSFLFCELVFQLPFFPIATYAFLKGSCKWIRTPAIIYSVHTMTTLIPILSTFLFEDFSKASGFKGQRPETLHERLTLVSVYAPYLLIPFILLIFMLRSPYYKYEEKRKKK
Test: Displacement of [3H]DTG from sigma-2 receptor (unknown origin) assessed as inhibition constant
pKi: −log10 of the molar value.
reported_endpoint: pKi

molecule: CC(=O)N1CCCC(N2C(=O)c3cccc(N)c3C2=O)C1 (configuration not stated)
reported_endpoint: pKi
observed_value: 5.28
--
molecule: Nc1cccc2c1C(=O)N(C1CCCNC1)C2=O (racemic)
reported_endpoint: pKi
observed_value: 5.66
